ASSAY_OVERVIEW: basal S. cerevisiae growth modulation, no modifier, primary screen, OD600, strain BY4716, 24 h, basal condition (AID 1173)
CONDITION_DESCRIPTION: OD600, 24 h, higher = more signal, called active from +8 up or from −8 down
Calls of active or inactive are those of the source.
Some molecules, each annotated with its measured z-score.
MEASURED_ATTRIBUTE: z-score

MOLECULE	EXPERIMENTAL_RESULT
CC(CCN1CCCCc2nc(C)c(C)cc21)=NOC[C@@H](C)[C@H](OCc1ccccc1)C(C)C	-2.36 (inactive)
C=CC[C@@H]1C=C[C@H](ON=C[C@@H](C)[C@H](OCc2ccccc2)C(C)C)[C@@H](CO)O1	-5.6 (inactive)
O=C1CCCC=C1C(O)CCCCBr (stereo not drawn)	-17.6 (active)
CO[C@@H]1COC(=O)[C@@H](C)NC(=O)CC=C[C@@H](C)[C@H](NS(=O)(=O)c2ccc(C)cc2)COC(=O)[C@H](C)NC(=O)CC=C[C@H]1C	-0.673 (inactive)
CCOC(=O)[C@H](CC(C)C)NC(=O)CCC1CC(OC(=O)NCCc2ccc(F)cc2)CC2(CCCC(COC(=O)NCCC(C)C)O2)O1 (stereo partly drawn)	1.2 (inactive)
CO[C@H]1COC(=O)[C@@H](C)COC(=O)[C@H](C)NC(=O)CC=C[C@H]1C	-0.916 (inactive)
CON=C[C@@H](C)[C@H](OCc1ccccc1)C(C)C	-0.639 (inactive)
CCOC(=O)[C@H](CC(C)C)NC(=O)CCC1CC(OC(=O)NCc2cccc3ccccc23)CC2(CCCC(COC(=O)NCc3cccc(C(F)(F)F)c3)O2)O1 (stereo partly drawn)	-0.31 (inactive)

* * *

SYSTEM_TESTED: Epidermal growth factor receptor (Homo sapiens)
ASSAY_OVERVIEW: EGFR binders on small-molecule microarrays, primary screen, biochemical, small-molecule microarray, 635 nm fluorescence (AID 1104);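 also: score merges 667 nm emission intensity with spot signal to noise over triplicate slides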
CONDITION_DESCRIPTION: EGFR binding, higher = more signal
Parameter composite z-score: see the listing below.
MEASURED_ATTRIBUTE: composite z-score

MOLECULE	EXPERIMENTAL_RESULT
CC(C)=NOC[C@@H](C)[C@H](OCc1ccccc1)C(C)C	-0.602
Cc1ccc(S(=O)(=O)NC(CCc2ccccc2)CC(=O)C(C)(C)C)cc1 (configuration not stated)	0.589
Cc1ccc(S(=O)(=O)N[C@@H]2COC(=O)[C@@H](C)COC(=O)CC=C[C@H]2C)cc1	0.545
CC(C)(C)N1C(=O)[C@H]2[C@H]3[C@H](O)C=CC(=O)[C@@H]3CC[C@H]2C1=O	0.437
CCCNC(=O)OC[C@H]1O[C@H](CCON=C(C)C)C=C[C@@H]1Oc1ccc(OC)cc1	-0.0864
CC(CCC(=O)OC[C@H]1O[C@H](C#Cc2ccccc2)C=C[C@@H]1Oc1ccc(C)cc1)=NO[C@H](C)c1cn([C@H](CO)Cc2ccccc2)nn1	0.217
CC=CC1=C(CO)C(=O)[C@@H]2O[C@@H]2C1=O	1.01
O=C1OCCC=C1C(O)CCc1ccccc1 (configuration not stated)	0.386
CC(C)(C)N1C(=O)[C@H]2[C@H]3[C@H](O)[C@H](O)CC(=O)[C@H]3CC[C@H]2C1=O	0.456
C[C@H]1COC(=O)[C@@H]2CCCN2C(=O)[C@@H](C)COC(=O)[C@H](Cc2ccccc2)NC1=O	0.911
C#CCCCON=C1C[C@@H](O)[C@@H](O)[C@@H]2[C@@H]3C(=O)N(C(C)(C)C)C(=O)[C@@H]3CC[C@H]12	-0.0084
O=C1C=C[C@@H](O)[C@@H]2[C@@H]3C(=O)N(C[C@@H]4CCCO4)C(=O)[C@@H]3CC[C@@H]12	0.645
C=CC[C@@H]1C=C[C@H](ON=C2[C@H]3CCn4c(=O)n(-c5ccccc5)c(=O)n4[C@H]3[C@H](O)[C@@H]3O[C@H]23)[C@@H](CO)O1	0.55
COc1ccc(COC(=O)NN=C2C[C@@H](O)[C@@H](O)[C@@H]3[C@@H]4C(=O)N(Cc5ccccc5)C(=O)[C@@H]4CC[C@H]23)cc1	-0.432
CC(=O)OC[C@H]1O[C@H](C#Cc2ccccc2)C=C[C@@H]1OC(C)=O	0.0278
CC(=O)Nc1ccc([C@@H]2N[C@H](C(=O)O)CC[C@H]2C)cc1	0.546
CO[C@H]1COC(=O)CCC[C@@H](C)[C@H](OC)COC(=O)[C@@H](C)NC(=O)CC=C[C@@H]1C	1.2
CC(C)=CCCC(C)=CCON=C1C[C@@H](O)[C@@H](O)[C@@H]2[C@@H]3C(=O)N(C4CCCCC4)C(=O)[C@@H]3CC[C@@H]12	0.859
COC(=O)CC=C[C@@H](C)[C@@H](C=NO[C@H](C)c1cn([C@@H]2COC[C@H]2O)nn1)NS(=O)(=O)c1ccc(C)cc1	0.59
CCOC(=O)[C@H](Cc1ccccc1)NC(=O)CCC1CC(OC(=O)NCc2ccc3c(c2)OCO3)CC2(CCCC(COC(=O)NCCc3ccccc3OC)O2)O1 (some centres not stated)	0.539
C[n+]1ccc(-c2ccc(CO)cc2)cc1	1.51
COc1ccc(O[C@H]2C=C[C@@H](c3ccccc3)O[C@@H]2COC(=O)CCC(C)=NOC(C)CN2CCCc3nc(C)c(C)cc32)cc1 (some centres not stated)	0.517
C[C@@H]1C=CCC(=O)OC[C@H]2O[C@@H](C=C[C@@H]2O)[C@H](C)C=CCC(=O)OC1	1.23
CO[C@@H]1COC(=O)CC=C[C@@H](C)[C@H](OC)COC(=O)[C@@H](C)COC(=O)CC=C[C@H]1C	0.354
CC(=O)OC[C@H]1O[C@H](CCON=C2[C@H]3CCn4c(=O)n(-c5ccccc5)c(=O)n4[C@H]3[C@H](O)[C@@H]3O[C@H]23)C=C[C@@H]1OC(C)=O	0.432
CC(C)CON=C1C[C@@H](O)[C@@H](O)[C@@H]2[C@@H]3C(=O)N(c4ccc(F)cc4F)C(=O)[C@@H]3CC[C@H]12	0.59
O=c1n(-c2ccccc2)c(=O)n2n1CC[C@@H]1C(=NOCc3ccccc3)[C@H]3O[C@H]3[C@@H](O)[C@@H]12	-0.0683
CC(=O)OC[C@H]1O[C@@H](ON=C(C)CCN2CCCc3nc(C)c(C)cc32)[C@H](OC(C)=O)[C@@H](OC(C)=O)[C@@H]1OC(C)=O	0.804
CCCCC#C[C@@H]1C=C[C@H](OC(C)=O)[C@@H](COC(C)=O)O1	0.137
O=C1[C@H]2[C@H]3[C@H](O)[C@H](O)CC(=NOC[C@@H](O)COCc4ccco4)[C@H]3CC[C@H]2C(=O)N1C[C@@H]1CCCO1	0.947
CCOC(=O)[C@H](Cc1ccccc1)NC(=O)CCC1CC(OC(=O)NCc2cccc3ccccc23)CC2(CCCC(COC(=O)NCc3ccccc3)O2)O1 (some centres not stated)	0.173
CC(C)(C)N1C(=O)[C@H]2[C@H]3[C@H](O)[C@H](O)CC(=NOCc4ccccc4)[C@H]3CC[C@H]2C1=O	-0.376

* * *

SYSTEM_TESTED: Calmodulin-1 (Homo sapiens) (UniProt P0DP23)
ASSAY_OVERVIEW: calcium-bound CALM1 binders on microarrays, profiling panel, artefact control for SMM control-protein annotation, biochemical, small-molecule microarray, Cy5-labelled CALM1, plus calcium (AID 1112);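 also: score merges spot fluorescence with signal to noise from triplicate slides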
CONDITION_DESCRIPTION: Cy5-CALM1 binding fluorescence, higher = more signal
// reported composite z-score for each item listed

MOLECULE	composite z-score
COC(=O)CC=C[C@@H](C)[C@@H](C=NO[C@@H](C)c1cn([C@H](CO)Cc2ccccc2)nn1)NS(=O)(=O)c1ccc(C)cc1	-0.531
O=C1C=C[C@@H](O)[C@@H]2[C@@H]3C(=O)N(C[C@@H]4CCCO4)C(=O)[C@@H]3CC[C@@H]12	-0.78
COc1ccc(O[C@H]2C=C[C@@H](c3ccccc3)O[C@@H]2COC(=O)CCC(C)=NOC[C@@H](O)[C@H]2O[C@@H]3OC(C)(C)O[C@@H]3[C@H]2O)cc1	-0.627
CCN1C(=O)[C@H]2[C@H]3[C@H](O)[C@H](O)CC(=O)[C@H]3CC[C@H]2C1=O	-0.448
C#CCCCON=C1[C@H]2CCn3c(=O)n(C)c(=O)n3[C@H]2[C@H](O)[C@@H]2O[C@H]12	-0.792
CCOC(=O)[C@H](Cc1ccccc1)NC(=O)CCC1CC(OC(=O)NCCc2ccc(F)cc2)CC2(CCCC(COC(=O)NCCCN3CCCC3=O)O2)O1 (some centres not stated)	-0.043
COC(=O)[C@H](C)NC(=O)CCC1CC(OC(=O)NCc2ccc3c(c2)OCO3)CC2(CCCC(COC(=O)NCCc3ccccc3OC)O2)O1 (some centres not stated)	0.351
